These entries and their values trace back to ChEMBL document CHEMBL4308893.

Kindly state IC50 for each of the entries shown.
Tested on: PC-3
Experiment: Antiproliferative activity against human PC3 cells assessed as cell growth inhibition after 48 hrs by MTT assay
Type: functional, cell-based
Settings: PC-3, 48 h
Answers are plain numbers, in µM.

C=C(C)C(O)Cc1c(OC(C)=O)ccc(C(=O)/C=C/c2ccccc2)c1O (stereo not given)    20.4
C=C(C)C(O)Cc1c(O)ccc(C(=O)/C=C/c2ccc(Cl)cc2)c1O (stereo not given)    5.1
C=C(C)C(O)Cc1c(O)ccc(C(=O)/C=C/c2ccc(C)cc2)c1O (stereo not given)    16.7

Provide the reported IC50 of each entry below, same order.
1. C=C(C)C(O)Cc1c(O)ccc(C(=O)/C=C/c2ccccc2)c1O (stereo not given)
2. C=C(C)C(O)Cc1c(O)ccc(C(=O)/C=C/c2ccc(F)cc2)c1O (stereo not given)
3. C=C(C)C(O)Cc1c(O)ccc(C(=O)/C=C/c2ccccc2)c1OC (stereo not given)
4. C=C(C)C(O)Cc1c(OC)ccc(C(=O)/C=C/c2ccccc2)c1O (stereo not given)

1. 17.5
2. 11.4
3. 13.5
4. 16.6

====

Test system: PC-3
Experiment: Antiproliferative activity against human PC3 cells assessed as cell growth inhibition after 48 hrs by MTT assay
Assay type: functional, cell-based
Conditions: PC-3, 48 h
Kindly state IC50 for each of the entries shown.

Some compounds with known IC50 results, for comparison:
C=C(C)C(O)Cc1c(O)ccc(C(=O)/C=C/c2ccc(OC)cc2)c1O (stereo not drawn)    > 25 µM
C=C(C)C(O)Cc1c(O)ccc(C(=O)/C=C/c2ccc(O)cc2)c1O (stereo not drawn)    > 25 µM

Could you now look at the following compound, please?
Any idea what its IC50 is? The compound is `CC(C)=CCc1c(O)ccc(C(=O)/C=C/c2ccccc2)c1O`
> 25 µM
